TEST_SYSTEM: cloned human kappa opioid receptor (Homo sapiens, UniProt P41145)
Construct: expressed in transfected cells
Sequence (P41145 whole entry): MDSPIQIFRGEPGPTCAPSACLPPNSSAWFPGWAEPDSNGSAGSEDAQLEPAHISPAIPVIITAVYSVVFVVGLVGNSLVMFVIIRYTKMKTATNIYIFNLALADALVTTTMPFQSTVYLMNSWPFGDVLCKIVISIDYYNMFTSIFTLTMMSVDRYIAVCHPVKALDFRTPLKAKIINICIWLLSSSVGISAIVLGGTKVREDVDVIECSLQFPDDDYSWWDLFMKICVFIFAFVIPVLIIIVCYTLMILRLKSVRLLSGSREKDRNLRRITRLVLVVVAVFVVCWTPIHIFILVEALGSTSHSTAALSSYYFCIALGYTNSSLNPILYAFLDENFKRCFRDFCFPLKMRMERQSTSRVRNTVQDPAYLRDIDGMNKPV
EXPERIMENT_SUMMARY: GTP-γ-S binding assay (SPA), antagonist mode, kappa
Assay type: biochemical
PARTICULARS: functional antagonist potency; membranes with cloned human kappa receptor; agonist U69593 300 nM; Cheng-Prusoff
Entries annotated with measured Kb
Report only the number, with the unit nM understood.

Answered examples (4):
NC(=O)c1ccc2c(c1)CCc1cc(CNCCc3cccs3)ccc1O2 | 12.6
CC(C)CNCc1ccc2c(c1)CCc1cc(C(N)=O)ccc1O2 | 29.8
CCOCCCNCc1ccc2c(c1)CCc1cc(C(N)=O)ccc1O2 | 25.7
CCCCCCNCc1ccc2c(c1)CCc1cc(C(N)=O)ccc1O2 | 4.4

Tell me the measured Kb of `NC(=O)c1ccc2c(c1)CCc1cc(CNCCC3CCCC3)ccc1O2` , please.
8.6

Tell me the measured Kb of `CC(C)CCNCc1ccc2c(c1)CCc1cc(C(N)=O)ccc1O2` , please.
6.1

Tell me the measured Kb of `CC(C)CCCNCc1ccc2c(c1)CCc1cc(C(N)=O)ccc1O2` , please.
6.5

Tell me the measured Kb of `CC(C)(C)CCNCc1ccc2c(c1)CCc1cc(C(N)=O)ccc1O2` , please.
12.1

Tell me the measured Kb of `CCCCCNCc1ccc2c(c1)CCc1cc(C(N)=O)ccc1O2` , please.
4.9

Tell me the measured Kb of `NC(=O)c1ccc2c(c1)CCc1cc(CNCCC3CCOCC3)ccc1O2` , please.
2.2

###

TEST_SYSTEM: cloned human mu opioid receptor (Homo sapiens)
Construct: expressed in transfected cells
EXPERIMENT_SUMMARY: GTP-γ-S binding assay (SPA), antagonist mode, mu
Format: biochemical
PARTICULARS: functional antagonist potency; membranes with cloned human mu receptor; agonist DAMGO 1 micromolar; Cheng-Prusoff
# label = 1 if Kb >= 2 nM else -1

Below, 4 molecules whose answers are already recorded.
CC(C)CCCNCc1ccc2c(c1)CCc1cc(C(N)=O)ccc1O2 | -1
NC(=O)c1ccc2c(c1)CCc1cc(CNCCc3cccs3)ccc1O2 | -1
CCOCCCNCc1ccc2c(c1)CCc1cc(C(N)=O)ccc1O2 | 1
CCCCCNCc1ccc2c(c1)CCc1cc(C(N)=O)ccc1O2 | -1

Can `CC(C)(C)CCNCc1ccc2c(c1)CCc1cc(C(N)=O)ccc1O2` be said to have Kb at or above 2 nM?
1

###

TEST_SYSTEM: cloned human delta opioid receptor (Homo sapiens)
Construct: expressed in transfected cells
Sequence (P41143 whole entry): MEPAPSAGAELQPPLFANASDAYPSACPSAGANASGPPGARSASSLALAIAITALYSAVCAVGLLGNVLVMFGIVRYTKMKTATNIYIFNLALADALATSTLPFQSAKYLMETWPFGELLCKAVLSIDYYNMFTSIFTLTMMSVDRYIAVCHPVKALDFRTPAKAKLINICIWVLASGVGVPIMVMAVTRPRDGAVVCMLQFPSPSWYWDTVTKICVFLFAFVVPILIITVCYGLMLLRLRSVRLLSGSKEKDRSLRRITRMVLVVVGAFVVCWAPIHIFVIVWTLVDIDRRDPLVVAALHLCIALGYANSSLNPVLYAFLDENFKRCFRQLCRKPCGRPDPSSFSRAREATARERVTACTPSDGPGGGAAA
EXPERIMENT_SUMMARY: GTP-γ-S binding assay (SPA), antagonist mode, delta
Type: biochemical
PARTICULARS: functional antagonist potency; membranes with cloned human delta receptor; agonist DPDPE 30 nM; Cheng-Prusoff
# label = y if Kb >= 10 nM else n

NC(=O)c1ccc2c(c1)CCc1cc(CNCCC3CCCC3)ccc1O2 | n
CC(C)CCNCc1ccc2c(c1)CCc1cc(C(N)=O)ccc1O2 | y
CCOCCCNCc1ccc2c(c1)CCc1cc(C(N)=O)ccc1O2 | y
NC(=O)c1ccc2c(c1)CCc1cc(CNCCc3cccs3)ccc1O2 | n
CCCCCCNCc1ccc2c(c1)CCc1cc(C(N)=O)ccc1O2 | y

Can `CC(C)(C)CCNCc1ccc2c(c1)CCc1cc(C(N)=O)ccc1O2` be said to have Kb at or above 10 nM?
y

Can `CC(C)CCCNCc1ccc2c(c1)CCc1cc(C(N)=O)ccc1O2` be said to have Kb at or above 10 nM?
n

Can `NC(=O)c1ccc2c(c1)CCc1cc(CNCCC3CCOCC3)ccc1O2` be said to have Kb at or above 10 nM?
n

###

TEST_SYSTEM: cloned human mu opioid receptor (Homo sapiens, UniProt P35372)
Construct: expressed in transfected cells
Sequence (P35372 whole entry): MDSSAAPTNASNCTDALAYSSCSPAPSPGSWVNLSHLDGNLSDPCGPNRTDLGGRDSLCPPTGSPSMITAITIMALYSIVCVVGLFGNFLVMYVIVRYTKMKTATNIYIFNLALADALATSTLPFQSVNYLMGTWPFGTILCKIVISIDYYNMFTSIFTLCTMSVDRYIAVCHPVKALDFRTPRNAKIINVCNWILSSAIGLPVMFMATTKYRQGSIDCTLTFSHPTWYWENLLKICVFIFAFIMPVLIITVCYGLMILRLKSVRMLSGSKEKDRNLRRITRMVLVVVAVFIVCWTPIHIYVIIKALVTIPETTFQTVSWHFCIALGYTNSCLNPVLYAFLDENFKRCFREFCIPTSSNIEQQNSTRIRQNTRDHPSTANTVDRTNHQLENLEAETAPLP
EXPERIMENT_SUMMARY: GTP-γ-S binding assay (SPA), antagonist mode, mu
Assay type: biochemical
PARTICULARS: functional antagonist potency; membranes with cloned human mu receptor; agonist DAMGO 1 micromolar; Cheng-Prusoff
Entries annotated with measured Kb
Report only the number, with the unit nM understood.

CC(C)CNCc1ccc2c(c1)CCc1cc(C(N)=O)ccc1O2 | 12

Tell me the measured Kb of `CCCCCCNCc1ccc2c(c1)CCc1cc(C(N)=O)ccc1O2` , please.
0.7

Tell me the measured Kb of `NC(=O)c1ccc2c(c1)CCc1cc(CNCCC3CCOCC3)ccc1O2` , please.
0.7

Tell me the measured Kb of `NC(=O)c1ccc2c(c1)CCc1cc(CNCCC3CCCC3)ccc1O2` , please.
0.6

Tell me the measured Kb of `CC(C)CCNCc1ccc2c(c1)CCc1cc(C(N)=O)ccc1O2` , please.
1.2
